- protocol.summary: yeast display, Sf9 membrane polyspecificity reagent, FACS + sequencing; frameworks hold sequencing errors
measurement.label: polyreactivity (PSR sort gate)

sequence.input	measurement.label	result
QVHLVESGGGLVQAGGSLRLSCAASGRIFTFYAMGWYRQAPGKERELVAAISSSGVRTYYADSVKGRFTISRDNAKNTVYLQMNSLKPEDTAVYYCAAASRANSYRYNYWGQGTQVTVSS	polyreactivity (PSR sort gate)	high polyreactivity
QVQLVESGGGLVQAGGSLRISCAASGSTFYIYAMGWYRPAPGKERELVAAIRRSGGSTYYADSVKGRFTISRDNAKNTVYLQMNSLKPEDTAVYYCATRYLWRPRPYDYWGQGTQVTVSS	polyreactivity (PSR sort gate)	high polyreactivity
QVQLVESGGGLVQAGGSLRLSCAASGSTFDANAMGWYRQAPGKERELVATISDGGSTNYADSVKGRFTISRDNAKNTVYLQMNSLKPEDTAVYYCAAVKLFLGLGYDYWGQGTQVTVSS	polyreactivity (PSR sort gate)	low polyreactivity
QVQLVESGGGLVQAGGSLRLSCAASGFIFRVNAMGWYRQAPGKERELVAAISSSGTSTYYADSVKGRFTISRDNAKNTVYLQMNSLKPEDTAVYYCAARLFYRSAYGYWGQGTQVTVSS	polyreactivity (PSR sort gate)	high polyreactivity
QVQLVESGGGLVQAGGSLRLSCAASGRIFSWNAMGWYRQAPGKERELVAAISSGGSTIYADSVKGRFTISRDNAKNTVYLQMNSLKPEYTAVYYCATRNGYSGTYGYWGQGTQVTVSS	polyreactivity (PSR sort gate)	low polyreactivity

// batch mode: one polyreactivity (PSR sort gate) value per listed entry
1. QAQLQESRGSVVQAGLGLRLSCAASGYISVGSVMGWYRQAPSKERELVASIDQGANTNYADSVKGRFTISRDNAKNNVYLQMISLKPEDTEVYYCATETTYILNYWGQGSQVTVSS
2. QVQLVESGGGIVQAGGSLRLSCAASGSTFYLYAMGWYRQAPGKERELVAAISTVGSTNYADSVNGRFTISRDNAKNTVYLQMNSLKPEDTAVYYCNAEYYGVVEYDYWGHGTQVTVSS
3. QDQLVESGGGLVQARGSLRLSCAASGRIIKRYVMGWYRQAPGTERELVAAITSGGTNYADSVKGRFTISRDNAKNTVYLQMNSRKPEDTAVYSCAARYLYRAGSNYWGQGTQVTVSS
4. QVQLVESAGGLVQAGGSLRLSCAASGRIFSAYAMRWYRQARGKERQLVAAITWSGANTDYADSVKGRFTISRDNAKNTVYLQMTSLKPEDTAVYYCNASFGRDSAYDYWGQGTQVTVSS
5. QVQLVESGGGLVQAGGSLRLSCAASGRTFSRYAMGWYRRAPGKERELVAAITKSGGSTYYADSVKGRFTISRDNAKITVYLQMNSLKPEDTAVYYCAVRYGGRFFRKYDYWGQGTQVTVSS
6. QVHLVESGGGLVHAGGSLRLSCAASGSTFDYYAMGWYRQEHGKERELVAAISSGGSTYYADSVKGSFTISRDNPKNTVYLQMNSRKPEDTAVYYCAAVYRGQFSRYDYWGQGTQVTVSS
7. QVQLVESGGGLVQAGGSLSLSCAASGSIFSYYAMGWYRQAPGKARELVAAITANGGSTSYADSVKGRFTISRDTANNTVYLQMNRLKPEDTAVYYCAKESDYPDFVSTKGDYDYWGQGTQVTVSS

[A]
low polyreactivity
low polyreactivity
high polyreactivity
low polyreactivity
high polyreactivity
low polyreactivity
low polyreactivity

// batch mode: one polyreactivity (PSR sort gate) value per listed entry
1. QVQLVESGGGLVQAGGSLRLSCAASGIISIFNVMGWYRQAPGKERELVASITGRGGSTFYADSVKGRFTISRDNAKNTVYLQMNSLKPEDTAVYYCATDTGYTYPVTGLYDYWGQGTQVTVSS
2. QVQLVESGGGLVQAGGSLRLSCAASGSTFEVYAMGWYRQAPGTERELVAVITNSGTSTNYADSVKGRFTISRDNAKNTVYLQMTSLKPEDTAVYYCAADVEWTSRGSYYRYYYWGQGTQVTVSS
3. QVQLQESVVGLVLAGGSLRLICSASANISVYGSMGWYRKAPGKEREFVATIDPGTNTNYADSVKDRFTISRDNAKNTVFLQINSLKPEYTAVYYCAVEGGSDWPYRYWGQGTQVTVSS

[A]
low polyreactivity
low polyreactivity
low polyreactivity

// batch mode: one polyreactivity (PSR sort gate) value per listed entry
1. QVHLVESGGRLVQAGGSLRLRCAASGRTFIANVMGLYRQAPRKETELVAAISTRGGSTYYADSVKGRFTISRDYAKYTVYLHMNRLKPEDTAVDYCAAYYPAQRGFNSWGQGTQVTVSS
2. QVQLVESGGVLDQAGGSLGLSCAASGRTLRKYAMGWYRQAPGKERELVAAITWTGGTTYYADSVKGRFTISRDNAKNTVYLQMNTLKPEDTAFYFCGTVRRYGYGYDYWGQGTQVTVSS
3. QVQLVESGGGLVQAGGSLRLSCAASGSIFYWNAMGWYRQAPWKERELVASINWSGSTYYADSVKGSFTISRDNAKNTVYLQMNSLKPEDTAVYYCNTDPRVSDASADMEYWGQGTQVTVSS
4. QVHLVESGGGLVQAGGSLRLSCAASGRIFYRNAMGWYRHAPGKERELVAAISRRGGSTSYADSVQGRFTISRDNAKNTVYLQMTSLKPEDTAVYYCAASRFRTGQEDDYWGQGTQVTVSS

[A]
["high polyreactivity", "high polyreactivity", "high polyreactivity", "high polyreactivity"]

// batch mode: one polyreactivity (PSR sort gate) value per listed entry
1. QVQLVESGGGLVQAGGSLRLSCAASGITFYFNTMGWYRQAPGKVRELVASISGGSSTYYADSVKGRFTISRDNAKNTVYLQMNSLKPEDTAVYYCNAQGALFRGWFDYDYWGQGTQVTVSS
2. QVQLVESGGGLVQAGGSLRLSCAASGIIFESYAMGCYRQAPGKERELVAAISSRGGSTYYADSVKGRFTISRDNSKNTVYLQMNSLKPEDTAVYYCAADVAAGVSSYPTKYSYDYWGQGTQVTVSS

[A]
["low polyreactivity", "low polyreactivity"]

* * *

- protocol.summary: yeast display, Sf9 membrane polyspecificity reagent, FACS + sequencing; frameworks hold sequencing errors

sequence.input	polyreactivity (PSR sort gate)
QVQLQQSGGGLVQAGGSLRLSCAASGSIFDGFNMGWYRQAPGKAREFVAAIRYGASTYYADSVKGRFTVSRDNAKNSVYLQMNSLNPEDTAVYYCAKAYSDGYFPTFDYDYWGQGTQVTVSS	low polyreactivity
QVQLVESGGGLVQAGGSLRLSCAASGSTFYYNAMGWYRQAHGKERELVARISRSGGSTYADSVKGRFTISRDNAKNTVYLQMNSLKPEDTAVYYCNADAYGTPEFTSYAVRYDYWGQGTQVTVSS	low polyreactivity

* * *

- protocol.summary: yeast display, Sf9 membrane polyspecificity reagent, FACS + sequencing; frameworks hold sequencing errors
measurement.label: polyreactivity (PSR sort gate)

Would you please look over these solved cases?
sequence.input	polyreactivity (PSR sort gate)
QVQLEESGGGLVQAGGSLRLICAASGIIFLFYALGWYRQAPGKERELVASITWSGGSTYYADSVKGRFTISRDNAKNTVYLQMNSLKPEDTAVYYCAASVKIISYLVHSEFLGGELDYWGQGTHVTVSS	low polyreactivity
QVQLVESGGGLVQAGGSLRLSCAASGRTFVWNVMGWYRQAPGKEREFVAAISGGSTYYADSVKGRFTISRDNAMNTVYLEMNSLKPEDTAVYYCADASKLHPRYEYWGQGTQVTVSS	low polyreactivity
QVQLVESGGGLVQAGGSLRLSCAASGIIFDYNAMGWYRPAPGKERELVAAISGRSGRTYYADSVKGRFTISRDNAKNTVYLQMNSLKPEDTAVYYCAARWYAGGNYWGQGTQVTVSS	high polyreactivity
QVQLVESGGGLVQAGGSLRLRCAASGSIFQSNAMGWYRPAPGKESELVAAISSSGVRTYYADSVKGRFTISRDNAKNTVYLQMNSLKPEDTAVYYCATGWYYAGGPTYEYYYWGQGTQVTVSS	low polyreactivity
QVQLVETGGGLVQAGGSLRLSCAASGGSFTYNALGWDRQSPGKERALVAAITDSGGSTFADSVKGRFTISRDIAKNNVYLQMNSLKPEDTAVYYCAAGDGDTGSMYLRKLSDYWGQGTQVTVSS	low polyreactivity
QVQLVESGGGLVQAGGSLRLSCAASGRTFGKNAMGWYRQAPGKEMEFVAAITSRGGSTYYADSVKGRFTISRDNAKNTVYLQLNSLIPVDTAVYYCYGEYKRPSQRTEHYYWGQGSQVTVSS	low polyreactivity

// batch mode: one polyreactivity (PSR sort gate) value per listed entry
1. QVQLVESGGGLVQAGGSLRLSCAASGSIFDVYVMGWYRQAPGKERELVAAITSTGSTNYADSVKGRFTISRDNAKNTVYLQMNSLKPEDTAVYYCATDGVYKHIQVLYDYWGQGTQVTVSS
2. QVQIVESGGGLVQAGGSLRLSCADSGRIFYLYDMGWYRQAPGKERELVATISCSGGSTYYADSVMGRFTISRDNAKNTVYLQMNSLKPEDTALYYCAAVSVSSWYDYWGQGTQVTVSS
3. QVQLVESGGGLVQAGGSLRLSCAASGSIFYKYMGWSRQAPGKERELVAAITWSGGSTYYADSVKGRFTISRDNAKNTVYLQMNSLKPEDPAVYYCAARDYTRYGYGYWGQGTQVTVSS
4. QVQLVESGGGLVQAGGSLRLSCAASGSIFESYAMGWYRQAPGKERELVAAITKRGGSTYYADSVKGRFTISRDNAKYTVYLQMNSLKPEDTAVYYCNARWPGIGPIYDYCGQGTQVTVSS
5. QVQLVESGGGLVQAGGSLRLSCAASGRIFYGYAMGWYRQAPGKERELVAAITSGSRTNYADSVKGRFTISRDNAKNTVYLQMNSLKPEDTAVYYCHSRYGSYLYSLVHNTRYDYWGQGTQVTVSS
6. QVQLVESGGGLVQAGGSLRLSCAASGRTFRYKAMGWYRQAPGKERELVAAITYSGGITYYADSVKGRFTISRDNAKNTVYLQMNSLKPEDTAVYYCAADDPYRTTYEYDYWGQGTQVTVSS
7. QVQLVESGGGLVQAGGSLRLSCAASGRIWSRYAMGWYRQAPGKERELVAAITQSGTSTYYADSVKGRFTFSRDNAKNTVYLQMNSLKPEDTAVYYCNAYRQYRYDYWGQGTQVTVSS

[A]
["low polyreactivity", "low polyreactivity", "high polyreactivity", "low polyreactivity", "low polyreactivity", "low polyreactivity", "low polyreactivity"]

// batch mode: one polyreactivity (PSR sort gate) value per listed entry
1. QVQLVESGGGIVQAGGSLRLSCAASGSISVPYGMGWYRPAPGKERELVAAITGGSTYYADSVKGRFTISRDNAKNTVYLQMNSLIPEDTAVYYCFDVNTDVLSRVYRGWGYYYWGQGTQVTVSS
2. QVQLVESGGGLVQAGGSLRLSCAASGSIFFSYAMGWYRQAPGKERELVAAITSSVDSTYYADSVKGRFTISRDNAKNTVYLQMNSLKPEDTAVYYCDARYRSGYYRYDYWGQGTQVTVSS
3. QVQLVESAGGLVQAGGSLSLSCAASGGTFSTNAMGWYRQAPGQERELVAAISLSGGRTYADSVKGRFTISLDNAKNTVYLQMNSLKPEDTAVYYCNADSAGITRARSELDYWGQGTQVTVSS
4. QVQLVESGGGLVQAGGSLRLRCAASGRIFNGYGMGWYRQAPGKERELVAAITWSGGGTYYADTVKGRFTISRDNAKNTVYLQRNSLKPEDTAVYYCAAYSSSYPDYDSWGQGTQVTVSS
5. QVQLVESGGGLVQAGGSLRLSCAASGSIFCYALGWNRQAPGKKRELVAAITGRCTSTYADSVKGRFTISLDNAKNTVYLQTNSLKPEDTAVYYCGPVGWFAEFLFSDIYGYYWGQGTQVTVSS
6. QVQLVESGGGLVQAGGSLRLSCAASGSIFSRYAMGWYRQAPGKERELVAAITSSGGRTYYADSVKGRFTISRDNAKNTVYLQMNSLKPEDTAVYYCAADVRTPSEGYDYWGQGTQGTVSS

[A]
["low polyreactivity", "low polyreactivity", "low polyreactivity", "low polyreactivity", "low polyreactivity", "high polyreactivity"]

// batch mode: one polyreactivity (PSR sort gate) value per listed entry
1. QVQLVESGGGLVQAGGSLRLSCAASGRTFYRYAMGWYRQAPGKERELVAAISTRGGTTYYADSVKGRFTISRDNAKNTVYLQMNSLKPEDTAVYYCAADSVYAEDDSWGQGTQVTVSS
2. QVQHVESGGGLVQAGGSLRLSCAASGLTSRYYAMGWYRQAPGKERELVAAISSRGGRTYYADSVKGPFTISRDNAKNTVYLQMNSLKPEDTAVYYCNAVRGYSGNLRDYWGQGTQVTVSS

[A]
1: low polyreactivity; 2: high polyreactivity
